protocol notes: Inhibition of lipid peroxidation
Format: functional

{"smiles record": "O=C1CC(c2ccccc2)=NN1c1ccccc1", "unit tag": "µM", "IC50": 3.5}
{"smiles record": "CC1=NN(c2ccccc2)C(=O)C1", "unit tag": "µM", "IC50": 4.5}
